- Tested on: zebra mussels (Dreissena polymorpha)
- condition_set: in vivo
readout: residual effect to the target organism

molecule="CCCCCCCCC(=O)NCc1ccc(O)c(OC)c1 [pseudocapsaicin, N-vanillylnonanamide]" test_value="little residual effect"
molecule="COc1cc(CNC(=O)CCCC/C=C/C(C)C)ccc1O (racemic) [capsaicin, reference compound]" test_value="little residual effect"

Reference source: patent US8895637B2
